Values were extracted from PubChem BioAssay (NCI).

- Test system: SF-295 CNS
- ASSAY_NAME: NCI-60 one-dose screen, 48 h (100 = growth as untreated, 0 = no growth, -100 = all killed)
- TEST_PARAMETERS: 10 µM
About 83,000 compounds went through this panel and 20% of them were active in at least one assay; those are over-represented in the sample as a whole.
MEASUREMENT_KIND: growth (%)
Write it as a number; the unit % goes unstated.

Before answering, review these 4 worked examples.
COMPOUND: CC1CCC(C(=O)O)N1 (stereo not drawn)
growth [%]: 101
//
COMPOUND: CN(C)C(C)(C)CC(C)(C)C
growth [%]: 104
//
COMPOUND: O=[N+]([O-])c1ccc(N=Nc2ccccc2)cc1
growth [%]: 91.3
//
COMPOUND: c1cc2cccc3c4cccc5cccc(c(c1)c23)c54
growth [%]: 118

Look up growth for this compound: COc1cc(OC)c2ccc(=O)oc2c1 100

Ok, now COc1ccc(/C=C/c2cccc[n+]2C)cc1 99.1

Record: COC(=O)/C=C1\Sc2cc(F)ccc2NC1=O 118

Then C/C(=C\c1ccc([N+](=O)[O-])cc1)C(=O)O ? 98.4

Try this compound too: CCC(O)CC(CC)CO (stereo not drawn) 109

Now consider C=C1CC/C=C(\C)C(=O)C[C@@H]2[C@@H]1CC2(C)C and answer again. 108

Query c1ccc2c(N3CCCCC3)ncnc2c1 next 109

N#CC(=Nc1cccc(F)c1)C1=C(O)c2ccccc2C1=O ? 82

Lookup CC(=O)Nc1cccc(NC(C)=O)n1 108

What do you have for COC(=O)Nc1nc2ccc(C(=O)c3cccs3)cc2[nH]1 ? -9.66

---

- Tested on: UACC-257 melanoma
- ASSAY_NAME: NCI-60 one-dose screen, 48 h (100 = growth as untreated, 0 = no growth, -100 = all killed)
- TEST_PARAMETERS: 10 µM
This is part of a sample that, as a whole, favours compounds with a hit. Of some 83,000 tested, about 20% had one in any assay.
MEASUREMENT_KIND: growth (%)
Answer format: numeric, % implied, no suffix.

MOLECULE: COc1cc2cc(OC(C)=O)c3cc4c(cc3c2c(OC)c1OC)OCO4
growth / %: 105

Please give the measured growth for this molecule: O=C(Cc1ccccc1)Cc1ccccc1 93.1

// query: O=C(CCNNC(=O)c1ccncc1)NCc1ccccc1 110

Entry Cc1ccc(/C=C2\SC(=S)N(c3ccc(F)cc3)C2=O)o1 please 102

Further, for CC(=O)Cc1ccc(-c2ccccc2)cc1 ? 98.8

Also S=c1nn[nH]c2ccccc12 ? 108

Try the molecule CC1(C(N)=O)CCC(C(=O)O)C1(C)C (stereo not drawn) 99.5

Next: COc1cc(OC)c2ccc(=O)oc2c1 98.1

---

- Tested on: HOP-62 NSCLC
- ASSAY_NAME: NCI-60 one-dose screen, 48 h (100 = growth as untreated, 0 = no growth, -100 = all killed)
- TEST_PARAMETERS: 10 µM
Compounds without any hit were thinned out: in the full panel of roughly 83,000, 20% have a hit.
MEASUREMENT_KIND: growth (%)
Report the figure in % without appending any unit label.

Recorded results for 3 compounds are shown here.
COMPOUND: CC1CCC(C(=O)O)N1 (stereo unspecified)
growth (%): 93.9
//
COMPOUND: CC1(C(=O)O)NC(C(=O)O)Cc2c1[nH]c1ccccc21 (stereo unspecified)
growth (%): 102
//
COMPOUND: C#CCSc1nnnn1-c1ccc(Br)c(C)c1
growth (%): 102

Consider the compound Cc1ccc(/C(C#N)=C/c2ccc3c(c2)OCO3)cc1 and give its measured growth. 78.2

Then COC(=O)/C=C\C(=O)OC ? 113

Could you do the same for O=C(c1ccc(O)cc1)c1ccc(O)cc1 , please? 97.8

---

- Tested on: HS 578T breast
- ASSAY_NAME: NCI-60 one-dose screen, 48 h (100 = growth as untreated, 0 = no growth, -100 = all killed)
- TEST_PARAMETERS: 10 µM
Compounds without any hit were thinned out: in the full panel of roughly 83,000, 20% have a hit.
MEASUREMENT_KIND: growth (%)
Quick reminder: number only, in %, skip the unit.

# count of solved cases: 3
COMPOUND: C/C(=C\c1ccc([N+](=O)[O-])cc1)C(=O)O
TEST_TARGET: HS 578T breast
growth [%]: 101
//
COMPOUND: CCCCC(CC)COC(C)=O (centres undefined)
TEST_TARGET: HS 578T breast
growth [%]: 106
//
COMPOUND: COc1ccc(/C(C#N)=C2C=C/C(=N/O)c3ccccc3\2)cc1
TEST_TARGET: HS 578T breast
growth [%]: 35.1

Recorded growth for Nc1ccc(CC(=O)O)c(N)c1 with HS 578T breast, please? 96.7

Next record, please: CCOC(=O)/C(=C/c1ccc(OC)cc1)N(CC)CC 93.7

Then this compound: CCN(CC)CCNc1ccc(CO)c2sc3ccccc3c(=O)c12 64.8

What do you have for NC(=S)N/N=C/c1ccc(N)cc1 ? 106

Then this compound: COC(=O)c1cccc(Br)c1 117

Can you handle OC(c1ccccn1)C(O)c1ccccn1 (centres undefined) next? 111

---

Reported values of growth for individual entries
- Tested on: HS 578T breast
- ASSAY_NAME: NCI-60 one-dose screen, 48 h (100 = growth as untreated, 0 = no growth, -100 = all killed)
- TEST_PARAMETERS: 10 µM
Compounds without any hit were thinned out: in the full panel of roughly 83,000, 20% have a hit.
Hi! Could you send only the number? It should be in %, unit omitted.

For orientation, consider the following solved cases.
MOLECULE: c1c(-c2cc(C3CC3)[nH]n2)n[nH]c1C1CC1
UNITS: %
growth: 101

MOLECULE: NC(=O)c1ccc(N=C(N)N=C(N)N)cc1
UNITS: %
growth: 99.6

MOLECULE: c1ccc2c(c1)Sc1ccccc1S2
UNITS: %
growth: 102

MOLECULE: O=S(=O)(O)c1ccc(O)c2ccccc12
UNITS: %
growth: 102

MOLECULE: CCO/C=C1\SC(=S)N(c2cccc(C)c2)C1=O
UNITS: %
growth: 103

MOLECULE: O=C(c1ccccc1)C1CCC1
UNITS: %
growth: 115

MOLECULE: CCCC(C)OCC(=O)O (stereo not drawn)
UNITS: %
growth: 117

Now look at this one.
Form field: reported growth of COCCOCCCl 102

---

- System: SNB-19 CNS
- ASSAY_NAME: NCI-60 one-dose screen, 48 h (100 = growth as untreated, 0 = no growth, -100 = all killed)
- TEST_PARAMETERS: 10 µM
This is part of a sample that, as a whole, favours compounds with a hit. Of some 83,000 tested, about 20% had one in any assay.
MEASUREMENT_KIND: growth (%)
Just the number please, in %, no unit attached.

Requested read-out growth, target or system SNB-19 CNS, entry CC(=O)c1ccc2c(ccc3ccccc32)c1 99.4

# repeat for COc1ccccc1N1CCN(C(=S)Nc2ccccc2)CC1 99.6

Another: O=C1OC(c2ccc(F)cc2)CC1CN1CCOCC1 (stereo not drawn) 98.1

---

Each entry below lists one item and its recorded growth value.
- Tested on: SK-MEL-5 melanoma
- ASSAY_NAME: NCI-60 one-dose screen, 48 h (100 = growth as untreated, 0 = no growth, -100 = all killed)
- TEST_PARAMETERS: 10 µM
- Protocol: Growth inhibition of the SK-MEL-5 human tumor cell line is measured as a screen for anti-cancer activity. Cells are grown in 96 well plates and exposed to the test compound for 48 hours. Compounds are tested at a single concentration, which is 10^-5 M for most compounds. The reported endpoint is percent growth (GI% or GIPRCNT), where numbers from 0 - 100% represent growth inhibition, and numbers from -100% - 0 represent cell death. For example, a value of 40 represents 60% growth inhibition. […]
Compounds without any hit were thinned out: in the full panel of roughly 83,000, 20% have a hit.
The answer is to be given in %; state only the numeric part.

Example results:
COMPOUND: COc1cc(C2NC(=O)C(C#N)=C(Nc3cccc(C)c3)S2)ccc1O (configuration not stated)
TEST_TARGET: SK-MEL-5 melanoma
UNITS: %
growth: 101
--
COMPOUND: Cc1cc2nc(CC(=O)c3ccccc3)c(=O)[nH]c2cc1C
TEST_TARGET: SK-MEL-5 melanoma
UNITS: %
growth: 96.1
--
COMPOUND: CCn1c(=O)n(C)c2c(=O)n(C)c(=O)n(C)c21
TEST_TARGET: SK-MEL-5 melanoma
UNITS: %
growth: 103
--
COMPOUND: COc1ccc(/C(C#N)=C2C=C/C(=N/O)c3ccccc3\2)cc1
TEST_TARGET: SK-MEL-5 melanoma
UNITS: %
growth: -28.9
--
COMPOUND: CCCCCC(C)(CC(=O)O)CC(=O)O
TEST_TARGET: SK-MEL-5 melanoma
UNITS: %
growth: 101

Query growth on SK-MEL-5 melanoma for COc1nc(N)nc2c1ncn2C1OC(CO)CC1O (configuration not stated) 105

How about Cc1c(O)cccc1O ? 106

And the next one, CC(CN1CCCCC1)NC(=O)c1scnc1-c1ccccc1 (configuration not stated) ? 101

Now consider Cc1cccc(C(=O)N(C(C)C)C(C)C)c1 . 95.3

And what about the compound CN(C)c1ccc(S(=O)(=O)O)cc1 ? 98.9
